FYI, the data here is from paper PMC7774954.

Examples of compounds with documented BI follow.
# System: HTRA4-1
# experimentalProtocol: Holdup assay, HTRA4-1
# Assay type: binding, human
*1 amine or outer side, *2 acyl side, *3 side chain or, on linkers, in order; H or OH if unused. Where a SMILES comes first, the peptide text is derived from it. The star is where a group is joined. X1 = O=C(CCCC[C@@H]1SC[C@@H]2NC(=O)N[C@@H]21)NCCCOCCOCCOCCCN*; Suc = O=C(CCC(=O)[*:2])[*:1]
Answer with the value's number alone.

Task item: I would be grateful if you could share the reported BI for CC[C@H](C)[C@H](NC(=O)[C@H](CCC(N)=O)NC(=O)[C@@H](NC(=O)[C@H](Cc1c[nH]cn1)NC(=O)[C@H](CCC(N)=O)NC(=O)[C@H](CC(=O)O)NC(=O)[C@H](CCC(=O)O)NC(=O)[C@H](CC(=O)O)NC(=O)CCC(=O)NCCCOCCOCCOCCCNC(=O)CCCC[C@@H]1SC[C@@H]2NC(=O)N[C@@H]21)[C@@H](C)O)C(=O)N[C@H](C(=O)N[C@@H](CCCNC(=N)N)C(=O)N[C@H](C(=O)O)C(C)C)[C@@H](C)O [PTEN_KR] ({X1-Suc}-DEDQHTQITRV-OH) .
Reply: 0.004

Task item: I would be grateful if you could share the reported BI for CC[C@H](C)[C@H](NC(=O)[C@H](CCC(N)=O)NC(=O)[C@@H](NC(=O)[C@H](Cc1c[nH]cn1)NC(=O)[C@H](CCC(N)=O)NC(=O)[C@H](CC(=O)O)NC(=O)[C@H](CCC(=O)O)NC(=O)[C@H](CC(=O)O)NC(=O)CCC(=O)NCCCOCCOCCOCCCNC(=O)CCCC[C@@H]1SC[C@@H]2NC(=O)N[C@@H]21)[C@@H](C)O)C(=O)N[C@H](C(=O)N[C@@H](CCCCN)C(=O)N[C@H](C(=O)O)C(C)C)[C@@H](C)O [PTEN_11] .
Reply: 0.062

Task item: I would be grateful if you could share the reported BI for CC[C@H](C)[C@H](NC(=O)[C@H](CCC(N)=O)NC(=O)[C@@H](NC(=O)[C@H](Cc1c[nH]cn1)NC(=O)[C@H](CCC(N)=O)NC(=O)[C@H](CC(=O)O)NC(=O)[C@H](CCC(=O)O)NC(=O)[C@H](CC(=O)O)NC(=O)[C@H](Cc1ccccc1)NC(=O)[C@@H]1CCCN1C(=O)CCC(=O)NCCCOCCOCCOCCCNC(=O)CCCC[C@@H]1SC[C@@H]2NC(=O)N[C@@H]21)[C@@H](C)O)C(=O)N[C@H](C(=O)N[C@@H](CCCCN)C(=O)N[C@H](C(=O)O)C(C)C)[C@@H](C)O [PTEN_13] ({X1-Suc}-PFDEDQHTQITKV-OH) .
Reply: 0.011
